- Test system: HDAC 1 (Homo sapiens)
- Sequence (Q13547 whole entry, species assumed): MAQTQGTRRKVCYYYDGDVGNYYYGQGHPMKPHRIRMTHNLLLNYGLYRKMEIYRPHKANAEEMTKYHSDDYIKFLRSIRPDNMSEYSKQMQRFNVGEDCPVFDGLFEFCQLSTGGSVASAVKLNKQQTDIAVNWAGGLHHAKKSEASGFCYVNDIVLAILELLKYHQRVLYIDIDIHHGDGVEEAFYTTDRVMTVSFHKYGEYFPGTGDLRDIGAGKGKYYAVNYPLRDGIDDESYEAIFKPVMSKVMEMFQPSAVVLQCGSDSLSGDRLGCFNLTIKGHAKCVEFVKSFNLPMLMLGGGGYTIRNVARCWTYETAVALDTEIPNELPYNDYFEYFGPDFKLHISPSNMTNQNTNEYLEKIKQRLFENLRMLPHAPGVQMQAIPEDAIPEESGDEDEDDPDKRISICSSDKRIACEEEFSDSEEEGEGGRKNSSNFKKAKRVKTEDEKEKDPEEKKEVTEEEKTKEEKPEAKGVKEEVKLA
- Experiment description: HDAC 1 inhibition assay with about 3 hours enzyme/compound preincubation (fluorophore/quencher peptide substrate)
- Type: biochemical
- Settings: 3-hour preincubation of enzyme with compound; read-out: HDAC 1 inhibitory activity (IC50 [μM]) (3-hour preincubation)
Give measured IC50 for each item. Keep answers brief.
One number for each entry, in µM.

Some solved entries appear below for comparison.
Cc1nc2cc(OCCN3CCOCC3)ccn2c1-c1ccnc(Nc2ccc(C(=O)Nc3ccccc3N)cc2)n1
0.315
COCCNC(=O)c1ccc2nc(C)c(-c3ccnc(Nc4ccc(C(=O)Nc5ccccc5N)cc4)n3)n2c1
0.312
Cc1nc2ccccn2c1-c1ccnc(Nc2ccc(C(=O)NO)cn2)n1
0.094
Cc1nc2ccc(C(=O)NCCN(C)C)cn2c1-c1ccnc(Nc2ccc(C(=O)Nc3ccccc3N)cc2)n1
0.132
Cc1nc2ccccn2c1-c1ccnc(Nc2ccc(C(=O)Nc3ccccc3N)cc2)c1
0.053

Your task in this section: give IC50 for each listed record.
1. Cc1nc2ccccn2c1-c1ccnc(Nc2ccc(C(=O)Nc3ccccc3N)cn2)n1
2. COc1ccc2nc(C)c(-c3ccnc(Nc4ccc(C(=O)Nc5ccccc5N)cc4)n3)n2c1
3. Cc1nc2ccccn2c1-c1ccnc(Nc2ccc(C(=O)Nc3ccccc3N)cn2)c1
4. Cc1nc2ccccn2c1-c1ccnc(Nc2ccc(C(=O)NO)s2)n1
5. O=C(NO)c1ccc(Nc2nccc(-c3c(C(F)(F)F)nc4ccccn34)n2)cc1
6. Cc1nc2cc(C(=O)NCCN3CCOCC3)ccn2c1-c1ccnc(Nc2ccc(C(=O)Nc3ccccc3N)cc2)n1
7. Cc1nc2ccccn2c1-c1ccnc(Nc2ncc(C(=O)NO)cn2)c1

Result:
[0.289, 0.388, 0.073, 0.31, 0.0818, 0.128, 0.104]

Your task in this section: give IC50 for each listed record.
1. O=C(NO)c1ccc(Nc2ncc(F)c(-c3cnc4ccccn34)n2)cc1
2. Nc1ccccc1NC(=O)c1ccc(Nc2nccc(-c3cnc4ccccn34)n2)cc1

Result:
0.211
0.197

* * *

- Test system: CDK2 (Homo sapiens)
- Experiment description: CDK2 inhibition
- Format: biochemical
Give measured IC50 for each item. Keep answers brief.
One number for each entry, in µM.

Some solved entries appear below for comparison.
Cc1nc2ccccn2c1-c1ccnc(Nc2ccc(C(=O)NO)cc2)n1
0.044
O=C(NO)c1cccc(Nc2nccc(-c3cnc4ccccn34)n2)c1
0.069
Cc1nc2ccccn2c1-c1ccnc(Nc2ncc(C(=O)Nc3ccccc3N)s2)n1
3.53
Cc1nc2ccccn2c1-c1ccnc(Nc2ccc(C(=O)NO)s2)n1
0.07

Your task in this section: give IC50 for each listed record.
1. COc1ccn2c(-c3ccnc(Nc4ccc(C(=O)NO)cc4)n3)c(C(F)(F)F)nc2c1
2. Cc1nc2ccccn2c1-c1ccnc(Nc2ccc(C(=O)Nc3ccccc3N)cn2)n1
3. Cc1nc2cnccn2c1-c1ccnc(Nc2ccc(C(=O)Nc3ccccc3N)cc2)n1
4. Cc1nc2c(F)cccn2c1-c1ccnc(Nc2ccc(C(=O)NO)cc2)n1

Result:
0.06
3.48
0.9
0.09

* * *

- Test system: UniProtKB P24941
- Experiment description: CDK2 inhibition
- Type: biochemical
Give measured IC50 for each item. Keep answers brief.

Some solved entries appear below for comparison.
Cc1nc2ccccn2c1-c1ccnc(Nc2ccc(C(=O)Nc3ccccc3N)cc2)c1 [Example 54]
13.1 µM
Cc1nc2ccc(C(=O)NCCN3CCOCC3)cn2c1-c1ccnc(Nc2ccc(C(=O)Nc3ccccc3N)cc2)n1 [Example 40]
7.1 µM
COc1ccn2c(-c3ccnc(Nc4ccc(C(=O)NO)cc4)n3)c(C)nc2c1 [Example 13]
0.04 µM

Your task in this section: give IC50 for each listed record.
1. Cc1nc2ccccn2c1-c1ccnc(Nc2csc(C(=O)NO)c2)n1 [Example 71]
2. Cc1nc2ccccn2c1-c1ccnc(Nc2ccc(C(=O)NO)cc2F)n1 [Example 33]
3. Cc1nc2ccc(C(=O)N3CCN(C)CC3)cn2c1-c1ccnc(Nc2ccc(C(=O)Nc3ccccc3N)cc2)n1 [Example 39]

Result:
1: 0.026 µM; 2: 0.22 µM; 3: 7.94 µM

Your task in this section: give IC50 for each listed record.
1. Cc1nc2cnccn2c1-c1ccnc(Nc2ccc(C(=O)NO)cc2)n1 [Example 19]
2. Nc1ccccc1NC(=O)c1cccc(Nc2nccc(-c3cnc4ccccn34)n2)c1 [Example 8]
3. Nc1ccccc1NC(=O)c1ccc(Nc2nccc(-c3c(C(F)(F)F)nc4ccccn34)n2)cc1 [Example 16]

Result:
0.07 µM
0.144 µM
0.16 µM

Your task in this section: give IC50 for each listed record.
1. Cc1nc2ccccn2c1-c1ccnc(Nc2cc(C(=O)NO)cs2)n1 [Example 60]
2. Cc1nc2ccccn2c1-c1ccnc(Nc2ncc(C(=O)NO)s2)c1 [Example 73]
3. Nc1ccccc1NC(=O)c1ccc(Nc2nccc(-c3cnc4ccccn34)n2)cc1 [Example 6]

Result:
1: 0.03 µM; 2: 1.68 µM; 3: 0.084 µM

Your task in this section: give IC50 for each listed record.
1. COc1ccc2nc(C)c(-c3ccnc(Nc4ccc(C(=O)Nc5ccccc5N)cc4)n3)n2c1 [Example 42]
2. Cc1nc2ccccn2c1-c1ccnc(Nc2ccc(C(=O)Nc3ccccc3N)cc2F)n1 [Example 34]
3. Cc1nc2ccccn2c1-c1ccnc(Nc2ncc(C(=O)NO)s2)n1 [Example 65]
4. Cc1nc2ccc(C(F)(F)F)cn2c1-c1ccnc(Nc2ccc(C(=O)Nc3ccccc3N)cc2)n1 [Example 12]
5. COCCNC(=O)c1ccc2nc(C)c(-c3ccnc(Nc4ccc(C(=O)Nc5ccccc5N)cc4)n3)n2c1 [Example 38]
6. Cc1nc2cccnn2c1-c1ccnc(Nc2ccc(C(=O)NO)cc2)n1 [Example 17]
7. Nc1ccccc1NC(=O)c1ccc(N(CC(F)(F)F)c2nccc(-c3cnc4ccccn34)n2)cc1 [Example 58]
8. Cc1nc2ccccn2c1-c1ccnc(Nc2cnc(C(=O)NO)cn2)n1 [Example 67]

Result:
0.29 µM
0.86 µM
1.86 µM
0.32 µM
2.74 µM
0.034 µM
> 40 µM
0.68 µM
